tested on: Legionella pneumophila 130b; assay: Inhibition of recombinant Legionella pneumophila 130b His6-tagged NTPDase (41 to 393 residues) expressed in Escherichia coli BL21(DE3) cells using ADP as substrate at 30 uM incubated for 10 mins by capillary electrophoresis method relative to control
test readout: inhibition

Nc1c(S(=O)(=O)O)cc(Nc2ccc(Nc3nc(Cl)nc(Nc4ccccc4S(=O)(=O)O)n3)c(S(=O)(=O)O)c2)c2c1C(=O)c1ccccc1C2=O = 45%

Form field inhibition, entry Nc1c(S(=O)(=O)O)cc(Nc2ccc3ccccc3c2)c2c1C(=O)c1ccccc1C2=O : 51%

Per the record, Nc1c(S(=O)(=O)O)cc(Nc2cccc3cc(S(=O)(=O)O)ccc23)c2c1C(=O)c1ccccc1C2=O has inhibition of 30%

The reported value for CCc1ccccc1Nc1cc(S(=O)(=O)O)c(N)c2c1C(=O)c1ccccc1C2=O in terms of inhibition is 39%

====

system: Legionella pneumophila 130b; assay: Inhibition of recombinant Legionella pneumophila 130b His6-tagged NTPDase (41 to 393 residues) expressed in Escherichia coli BL21(DE3) cells using ADP as substrate at 30 uM incubated for 10 mins by capillary electrophoresis method relative to control
Activity calls are given as the source filed them. No cut-off for these calls is given here.
test readout: inhibition

CCCNc1cc(S(=O)(=O)O)c(N)c2c1C(=O)c1ccccc1C2=O = inactive
Cc1ccccc1Nc1cc(S(=O)(=O)O)c(N)c2c1C(=O)c1ccccc1C2=O = 44%
Nc1c(S(=O)(=O)O)cc(NC2CCCCC2)c2c1C(=O)c1ccccc1C2=O = 22%
Nc1c(S(=O)(=O)O)cc(Nc2ccc(Nc3nc(Cl)nc(Cl)n3)c(S(=O)(=O)O)c2)c2c1C(=O)c1ccccc1C2=O = 8%
Cc1ccc2ccccc2c1Nc1cc(S(=O)(=O)O)c(N)c2c1C(=O)c1ccccc1C2=O = 76%
Nc1c(S(=O)(=O)O)cc(Nc2ccccc2F)c2c1C(=O)c1ccccc1C2=O = inactive
Cc1cc(C)c(Nc2cc(S(=O)(=O)O)c(N)c3c2C(=O)c2ccccc2C3=O)c(C)c1 = 44%
Nc1c(S(=O)(=O)O)cc(NCCc2ccccc2)c2c1C(=O)c1ccccc1C2=O = inactive

Data point: Cc1cccc(Nc2cc(S(=O)(=O)O)c(N)c3c2C(=O)c2ccccc2C3=O)c1 ; inhibition = 53%
